System: U-937 cells (Human histiocytic lymphoma, AML)
assay.name: Cell growth inhibition assay, FTS alone (direct cell count)
Assay type: cell-based
condition.parameters: Homo sapiens, U-937; U937; read-out: IC50 for FTS inhibition of leukemia cell growth
recorded.endpoint: pIC50
Give bare numbers, as −log10 of the molar value.

[ask] // pIC50 lookup, key: "CC(C)=CCC/C(C)=C/CC/C(C)=C/CSc1ccccc1C(=O)O"
[reply] 4.15
